- study_system: Adenosine receptor A1 (Homo sapiens)
- Sequence (P30542 whole entry): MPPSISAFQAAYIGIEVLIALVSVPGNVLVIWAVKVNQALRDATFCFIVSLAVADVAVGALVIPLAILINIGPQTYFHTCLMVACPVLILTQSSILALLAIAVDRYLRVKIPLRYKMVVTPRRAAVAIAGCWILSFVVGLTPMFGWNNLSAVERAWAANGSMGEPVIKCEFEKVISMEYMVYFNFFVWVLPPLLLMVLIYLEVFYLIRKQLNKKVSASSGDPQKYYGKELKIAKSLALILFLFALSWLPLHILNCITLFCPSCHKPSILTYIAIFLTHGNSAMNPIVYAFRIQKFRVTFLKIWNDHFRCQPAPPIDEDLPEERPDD
Threshold 900 nM: Ki strictly smaller gives Satisfied, otherwise Not satisfied.

Take a look at these entries with their results.
molecule: CCOC(=O)c1cnc(NC(C)C)n2nc(-c3ccco3)nc12
category_label: Satisfied
//
molecule: CCOC(=O)c1cnc(N2CCOCC2)n2nc(-c3ccco3)nc12
category_label: Not satisfied
//
molecule: CCCCC(CC)CNc1ncc(C(=O)OCC)c2nc(-c3ccco3)nn12 (stereo unspecified)
category_label: Not satisfied
//
molecule: O=C(O)c1cnc(NCc2ccccc2)n2nc(-c3ccco3)nc12
category_label: Not satisfied
//
molecule: CCOC(=O)c1cnc(NCc2ccccc2)n2nc(-c3ccco3)nc12
category_label: Not satisfied

Continue with the next molecule.
Query: Identify whether the molecule CCOC(=O)c1cnc(NC2CCCC2)n2nc(-c3ccco3)nc12 records Ki below 900 nM.
Reply: Satisfied

* * *

pKi by entry:
- study_system: Adenosine receptor A2b (Homo sapiens)
- Sequence (P29275 whole entry): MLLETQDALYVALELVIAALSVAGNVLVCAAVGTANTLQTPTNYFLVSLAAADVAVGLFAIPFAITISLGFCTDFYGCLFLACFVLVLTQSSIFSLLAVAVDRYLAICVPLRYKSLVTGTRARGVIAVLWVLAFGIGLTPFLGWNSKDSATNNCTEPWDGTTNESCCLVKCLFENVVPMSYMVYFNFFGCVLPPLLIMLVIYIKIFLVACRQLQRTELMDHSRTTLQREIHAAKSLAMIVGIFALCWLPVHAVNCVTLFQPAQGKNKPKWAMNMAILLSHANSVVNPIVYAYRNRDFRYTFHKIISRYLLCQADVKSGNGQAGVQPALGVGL
- assay_details: Antagonist activity at human adenosine A2B receptor expressed in CHO cells assessed as inhibition of NECA-stimulated adenylyl cyclase activity
pKi: −log10 of the molar value.

input_smiles: O=C(O)c1cnc(NCC2CCCCC2)n2nc(-c3ccco3)nc12
pKi: < 5.00

// sample COc1ccc(CNc2ncc(C(=O)O)c3nc(-c4ccco4)nn23)cc1OC , its pKi was < 4.52

// sample CCOC(=O)c1cnc(NN2CCOCC2)n2nc(-c3ccco3)nc12 , its pKi was < 5.00

// sample CCOC(=O)c1cnc(NCCOC)n2nc(-c3ccco3)nc12 , its pKi was < 5.00

// sample O=C(O)c1cnc(NCc2ccc(Cl)cc2)n2nc(-c3ccco3)nc12 , its pKi was < 4.52

// sample CCNc1ncc(C(=O)OCC)c2nc(-c3ccco3)nn12 , its pKi was 5.51

// sample O=C(Nc1ccccc1)Nc1ncc(C(=O)NCCc2ccccc2)c2nc(-c3ccco3)nn12 , its pKi was < 4.52

// sample O=C(O)c1cnc(NCc2ccc(C(F)(F)F)cc2)n2nc(-c3ccco3)nc12 , its pKi was < 4.52

// sample CNC(=O)c1cnc(N)n2nc(-c3ccco3)nc12 , its pKi was 5.69

// sample CNC(=O)c1cnc(NC(=O)NC2CCCCC2)n2nc(-c3ccco3)nc12 , its pKi was < 4.52

// sample CCOC(=O)c1cnc(NCc2ccc(OC)cc2)n2nc(-c3ccco3)nc12 , its pKi was 5.32

* * *

- study_system: Adenosine receptors; A1 & A3 (Homo sapiens) (UniProt P30542+P0DMS8)
- assay_details: Selectivity ratio of Ki for human adenosine A1 receptor expressed in CHO cells to Ki for human adenosine A3 receptor expressed in CHO cells
- Format: cell-based
Ratio Ki by entry:
Form field (numeric): enter value without unit.

Some solved cases for reference:
compound: O=C(O)c1cnc(NCC2CCCCC2)n2nc(-c3ccco3)nc12
Ratio Ki: 0.17
//
compound: CNC(=O)c1cnc(NC(=O)NC2CCCCC2)n2nc(-c3ccco3)nc12
Ratio Ki: 0.48
//
compound: COc1ccc(CNc2ncc(C(=O)O)c3nc(-c4ccco4)nn23)cc1
Ratio Ki: 1.04
//
compound: CCOC(=O)c1cnc(NCCOC)n2nc(-c3ccco3)nc12
Ratio Ki: 21.6
//
compound: CCOC(=O)c1cnc(NC(C)C)n2nc(-c3ccco3)nc12
Ratio Ki: 4.23

// sample CCCCCNc1ncc(C(=O)O)c2nc(-c3ccco3)nn12 , its Ratio Ki was 0.39

// sample CCOC(=O)c1cnc(NCc2ccc(C(F)(F)F)cc2)n2nc(-c3ccco3)nc12 , its Ratio Ki was 4.92

// sample CC(C)Nc1ncc(C(=O)O)c2nc(-c3ccco3)nn12 , its Ratio Ki was 0.26

// sample CCOC(=O)c1cnc(NC2CC2)n2nc(-c3ccco3)nc12 , its Ratio Ki was 6.38

// sample CNC(=O)c1cnc(NC(=O)Cc2ccccc2)n2nc(-c3ccco3)nc12 , its Ratio Ki was 0.25

// sample CCOC(=O)c1cnc(NC2CCC2)n2nc(-c3ccco3)nc12 , its Ratio Ki was 6.42

// sample CCOC(=O)c1cnc(NC2CCCCC2)n2nc(-c3ccco3)nc12 , its Ratio Ki was 1.08

// sample CNC(=O)c1cnc(NCc2ccc(OC)c(OC)c2)n2nc(-c3ccco3)nc12 , its Ratio Ki was 1.52

// sample CCOC(=O)c1cnc(N2CCCCC2)n2nc(-c3ccco3)nc12 , its Ratio Ki was 5

// sample CCOC(=O)c1cnc(NC)n2nc(-c3ccco3)nc12 , its Ratio Ki was 236

// sample O=C(O)c1cnc(NCc2ccccc2)n2nc(-c3ccco3)nc12 , its Ratio Ki was 2.28

// sample CCOC(=O)c1cnc(N(C)C)n2nc(-c3ccco3)nc12 , its Ratio Ki was 48.7

* * *

- study_system: UniProt P29275
- assay_details: Antagonist activity at human adenosine A2B receptor expressed in CHO cells assessed as inhibition of NECA-stimulated adenylyl cyclase activity
measured_parameter: Ki

input_smiles: CCOC(=O)c1cnc(N(C)C)n2nc(-c3ccco3)nc12
measured_parameter: Ki
reported_value: > 10 µM
--
input_smiles: CCOC(=O)c1cnc(NCC(C)C)n2nc(-c3ccco3)nc12
measured_parameter: Ki
reported_value: 7.15 µM
--
input_smiles: CNC(=O)c1cnc(NCc2ccc(OC)c(OC)c2)n2nc(-c3ccco3)nc12
measured_parameter: Ki
reported_value: 2.49 µM
--
input_smiles: O=C(Nc1ncc(C(=O)O)c2nc(-c3ccco3)nn12)NC1CCCCC1
measured_parameter: Ki
reported_value: > 30 µM

# lookup: CCOC(=O)c1cnc(N2CCOCC2)n2nc(-c3ccco3)nc12 on UniProt P29275, Ki = > 10 µM

# lookup: CCOC(=O)c1cnc(NC2CCCCC2)n2nc(-c3ccco3)nc12 on UniProt P29275, Ki = > 10 µM

# lookup: CCOC(=O)c1cnc(NC2CCC2)n2nc(-c3ccco3)nc12 on UniProt P29275, Ki = > 3 µM

* * *

- study_system: Adenosine receptors; A1 & A3 (Homo sapiens) (UniProt P30542+P0DMS8)
- assay_details: Selectivity ratio of Ki for human adenosine A1 receptor expressed in CHO cells to Ki for human adenosine A3 receptor expressed in CHO cells
- Format: cell-based
Decide by Ratio Ki: equal to or exceeding 1 means Criterion met, less means Criterion not met.

Query: Is Ratio Ki for CNC(=O)c1cnc(N)n2nc(-c3ccco3)nc12 at or above 1?
Reply: Criterion not met

Query: Is Ratio Ki for CCOC(=O)c1cnc(NCc2ccc(OC)cc2)n2nc(-c3ccco3)nc12 at or above 1?
Reply: Criterion met

Query: Is Ratio Ki for O=C(O)c1cnc(NCc2ccc(-c3ccccc3)cc2)n2nc(-c3ccco3)nc12 at or above 1?
Reply: Criterion met

Query: Is Ratio Ki for CCNc1ncc(C(=O)O)c2nc(-c3ccco3)nn12 at or above 1?
Reply: Criterion met

Query: Is Ratio Ki for CCOC(=O)c1cnc(NCc2ccccc2)n2nc(-c3ccco3)nc12 at or above 1?
Reply: Criterion met

Query: Is Ratio Ki for O=C(O)c1cnc(NC2CC2)n2nc(-c3ccco3)nc12 at or above 1?
Reply: Criterion met

Query: Is Ratio Ki for CCOC(=O)c1cnc(N)n2nc(-c3ccco3)nc12 at or above 1?
Reply: Criterion not met

Query: Is Ratio Ki for CCOC(=O)c1cnc(NC2CCCCCC2)n2nc(-c3ccco3)nc12 at or above 1?
Reply: Criterion not met

Query: Is Ratio Ki for O=C(Cc1ccccc1)Nc1ncc(C(=O)NCCc2ccccc2)c2nc(-c3ccco3)nn12 at or above 1?
Reply: Criterion not met

Query: Is Ratio Ki for CCCCC(CC)CNc1ncc(C(=O)OCC)c2nc(-c3ccco3)nn12 (stereo not given) at or above 1?
Reply: Criterion met

Query: Is Ratio Ki for CCOC(=O)c1cnc(NCC2CCCCC2)n2nc(-c3ccco3)nc12 at or above 1?
Reply: Criterion met

Query: Is Ratio Ki for CCOC(=O)c1cnc(NCc2ccc(C)cc2)n2nc(-c3ccco3)nc12 at or above 1?
Reply: Criterion met

Query: Is Ratio Ki for CCNc1ncc(C(=O)OCC)c2nc(-c3ccco3)nn12 at or above 1?
Reply: Criterion met

Query: Is Ratio Ki for CCOC(=O)c1cnc(NOC)n2nc(-c3ccco3)nc12 at or above 1?
Reply: Criterion met

meta.source: ChEMBL document CHEMBL3351655
